Test: molar heat capacity at constant pressure
Settings: 333.15 K; 101.33 kPa; Liquid; Large sample (1 g) DSC
Quick list: molar heat capacity at constant pressure per entry.
Value Kind: molar heat capacity at constant pressure (J/K/mol)

In [3]: df
Out[3]:
      smiles_repr  obs_value
0  CCCCCCCCCCCCBr     420.93
1    CCCCCCCCCCBr     351.85
2       CCCCCCCBr     262.27
3   CCCCCCCCCCCBr     390.67
4        CCCCCCBr        231

All values here come from the NIST ThermoML archive (doi:10.1007/s10765-016-2064-y).
